Source of measurements: PubChem BioAssay

This section presents compounds with their documented composite z-score values.
target: Follistatin-related protein 3 (Homo sapiens); test: FSTL3 binders on small-molecule microarrays, primary screen, biochemical, small-molecule microarray, 635 nm fluorescence (AID 1105); details: FSTL3 binding, higher = more signal;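 further: score merges emission near 667 nm and signal to noise per printed spot across three slides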
result-type: composite z-score

smiles-entry | result
O=C1O[C@@H](c2ccccc2)[C@@H](c2ccccc2)N2[C@@H](c3ccccc3OCCO)[C@]3(C(=O)Nc4ccccc43)[C@@H](C(=O)Nc3nc4ccccc4s3)[C@H]12 | 0.799
COc1ccc(C(=O)Nc2ccc(CN3C(=O)[C@]4(O[C@H](CCO)[C@@H]([Si](C)(C)c5ccc(OC)cc5)[C@@H]4C)c4ccccc43)cc2)cc1 | 1.02
CN(C)C(=O)[C@@]1(CCS(=O)(=O)c2ccccc2)COC(c2ccc(OCCCO)cc2)=N1 | -0.448
O=C(c1ccccc1)N1C(=O)[C@]2(COC(c3ccc(OCCCO)cc3)=N2)Cc2ccccc21 | 1.23
COc1ccc([Si](C)(C)[C@@H]2[C@@H](CCO)O[C@]3(C(=O)N(Cc4ccc(N(C=O)c5ccccc5)cc4)c4ccccc43)[C@H]2C)cc1 | 0.218
CCCCCCc1nc(-c2ccc(OC)nc2)cc2c1[Si](C(C)C)(C(C)C)O[C@H]2c1ccccc1 | 0.633
CN(C)CCCCCCNC(=O)[C@H]1C[C@H]2C(=O)N3CCC[C@H]3C(=O)N2[C@H]1c1ccc(O)cc1 | 1.44
NC(=O)NCC#Cc1ccc2c(c1)[C@]1(C(=O)N2)[C@H](c2ccccc2OCCO)N2[C@H](c3ccccc3)[C@H](c3ccccc3)OC(=O)[C@H]2[C@@H]1C(=O)Nc1nc2ccccc2s1 | 0.429
CNS(=O)(=O)c1ccc(C)cc1 | 0.688
C=CCN1C(=O)[C@]2(O[C@H](CCn3cc([C@H](O)c4ccccc4)nn3)[C@@H]([Si](C)(C)c3ccc(OC)cc3)[C@@H]2C)c2ccccc21 | -0.581
